List of pIC50 values.
- target.or.test.system: T1, Human VEGFA165 (human, UniProt P15692-4 27-191)
- T1 construct: treated as the same molecule; also called antigen VEGFA
- T1 sequence (P15692 other isoform, or with tags, fused parts or gaps limits assumed): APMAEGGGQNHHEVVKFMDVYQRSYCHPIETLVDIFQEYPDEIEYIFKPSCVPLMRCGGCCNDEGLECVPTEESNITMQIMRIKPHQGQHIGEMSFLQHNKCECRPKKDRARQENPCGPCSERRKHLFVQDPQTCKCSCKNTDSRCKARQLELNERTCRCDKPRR
- protocol.notes: competition ELISA on coated VEGFA, competitor VEGFR2-ECD-Fc 1 nM
Answer as the number alone; pIC50 is minus log10 of concentration in mol/L.

• V30-2H-2m (VHH, Humanized V30) VHH: EVQLVESGGGLVQPGGSLRLSCAASGRTFSSYTMGWFRQAPGKEREFVVAISKGGYKYDAVSLEARFTISRDNSKNTVYLQMNSLRPEDTAVYYCAATRAYGSSRLRLAKTYEYWGQGTLVTVSS = 8.25
• V43-1H-78 (VHH, Humanized V43) VHH: EVQLVESGGGLVQPGGSLRLSCAASGRTFSSYTMGWFRQAPGKEREFVVAISKGGYKYDSVSLEARFTISRDNSKNTVYLQMNSLRAEDTAVYYCAATRAYGSSRLRLANTYEYWGQGTLVTVSS = 8.25
• V30 (VHH, Purified with C-terminal GGGGS-6×His; also called candidate antibody V30) VHH: QLQLVESGGGSVQPGGSLRLSCEVSGRTFSSYTMGWFRQAPGKGREFVVAISKGGYKYDAVSLEARFTISKDNTKNTVYLQMNSLKPEDTAVYYCAATRAYGSSRLRLAKTYEYWGQGTQVTVSS = 8.24
• V43-1H-2m (VHH, Humanized V43) VHH: EVQLVESGGGLVQPGGSLRLSCAASGRTFSSYTMGWFRQAPGKEREFVVAISKGGYKYDSVSLEARFTISRDNSKNTVYLQMNSLRPEDTAVYYCAATRAYGSSRLRLANTYEYWGQGTLVTVSS = 8.22
• V30-2H-78 (VHH, Humanized V30) VHH: EVQLVESGGGLVQPGGSLRLSCAASGRTFSSYTMGWFRQAPGKEREFVVAISKGGYKYDAVSLEARFTISRDNSKNTVYLQMNSLRAEDTAVYYCAATRAYGSSRLRLAKTYEYWGQGTLVTVSS = 8.30

Please examine the following record next.
What the record says about V43-3H-87 (VHH, Humanized V43) VHH: EVQLVESGGGLVQPGGSLRLSCAASGRTFTSYTMGWFRQAPGKEREFVVAISKGGYKYDSVSLEARFTISRDNSKNTLYLQMNSLRPEDTAVYYCAGTRAYGSSRLRLANTYEYWGQGTLVTVSS : pIC50 is 8.15
